- System: A549
- ASSAY_REMARKS: Ratio of GI50 for human A549 cells in oxic condition to GI50 for anoxic condition
- Format: functional
READOUT_KIND: RatioGI50
Give the figure only, with no unit attached.

1) COc1ccc(/C=C\c2cc(OC)c(OC)c(OC)c2)c(OCc2ccc([N+](=O)[O-])s2)c1O; 0.61
2) COc1ccc(/C=C\c2cc(OC)c(OC)c(OC)c2)cc1OC(C)(C)c1ccc([N+](=O)[O-])s1; 41.5
3) COc1cc(/C=C\c2ccc(OC)c(OC(C)c3ccc([N+](=O)[O-])s3)c2O)cc(OC)c1OC (stereo not drawn); 6.1
4) COc1cc(/C=C\c2ccc(OC)c(OC(C)c3ccc([N+](=O)[O-])s3)c2OC(C)C)cc(OC)c1OC (stereo not drawn); 2.4
5) COc1cc(/C=C\c2ccc(OC)c3c2OC(C)(c2ccc([N+](=O)[O-])s2)O3)cc(OC)c1OC (stereo not drawn); 0.76
6) COc1ccc(/C=C\c2cc(OC)c(OC)c(OC)c2)cc1OC(C)c1ccc([N+](=O)[O-])s1 (stereo not drawn); 4

Specify measured RatioGI50 for `COc1cc(/C=C\c2ccc(OC)c(OCc3ccc([N+](=O)[O-])s3)c2OC(C)C)cc(OC)c1OC` . 6.3

Specify measured RatioGI50 for `COc1cc(/C=C\c2ccc(OC)c(OC(C)(C)c3ccc([N+](=O)[O-])s3)c2OC(C)C)cc(OC)c1OC` . 3.1
